# credit: ChEMBL document CHEMBL3804796

- system-under-test: Tumour suppressor p53/oncoprotein Mdm2 (Homo sapiens, UniProt Q00987)
- Sequence (P04637 whole entry, the tested form may be a part): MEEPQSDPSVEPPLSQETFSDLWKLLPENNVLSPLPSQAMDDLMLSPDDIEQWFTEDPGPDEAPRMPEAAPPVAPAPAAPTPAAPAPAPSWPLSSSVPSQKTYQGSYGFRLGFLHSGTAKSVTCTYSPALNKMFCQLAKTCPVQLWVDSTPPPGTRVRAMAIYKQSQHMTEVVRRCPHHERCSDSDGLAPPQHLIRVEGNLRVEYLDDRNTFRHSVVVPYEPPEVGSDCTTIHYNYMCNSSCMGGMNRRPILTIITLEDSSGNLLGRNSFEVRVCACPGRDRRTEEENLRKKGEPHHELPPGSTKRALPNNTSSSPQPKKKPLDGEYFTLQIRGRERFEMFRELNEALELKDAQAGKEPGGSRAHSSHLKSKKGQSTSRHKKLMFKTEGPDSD
- Sequence (Q00987 whole entry, the tested form may be a part): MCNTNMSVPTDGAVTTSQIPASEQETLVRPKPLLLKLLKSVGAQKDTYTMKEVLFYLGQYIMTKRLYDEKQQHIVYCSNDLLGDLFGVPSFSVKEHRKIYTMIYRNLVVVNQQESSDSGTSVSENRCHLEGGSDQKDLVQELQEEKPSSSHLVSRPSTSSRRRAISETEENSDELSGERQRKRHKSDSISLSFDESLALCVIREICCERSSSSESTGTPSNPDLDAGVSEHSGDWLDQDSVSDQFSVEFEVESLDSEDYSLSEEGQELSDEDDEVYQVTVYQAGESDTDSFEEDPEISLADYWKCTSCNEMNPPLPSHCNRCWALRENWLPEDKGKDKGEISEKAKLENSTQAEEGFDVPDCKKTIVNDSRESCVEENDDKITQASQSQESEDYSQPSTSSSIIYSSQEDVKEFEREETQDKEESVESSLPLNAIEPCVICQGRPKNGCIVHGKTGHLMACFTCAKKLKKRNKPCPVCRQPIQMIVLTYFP
- test: Inhibition of MDM2/p53 interaction in human HCT116 cells assessed as activation of p53 transcription by luciferase reporter gene assay
pEC50 values for the compounds below.
Please report pEC50 as the negative decimal logarithm of the molar concentration, giving only the number.

Consider the worked cases shown below.
[[record]]
compound = "CCC[C@H]1N(C(=O)c2cnccc2C(F)(F)F)CCC[C@@]1(Oc1csc(C(F)(F)F)c1)C(=O)N1CCN(c2ccccc2OCCCC(=O)O)CC1"
system_under_test = "Tumour suppressor p53/oncoprotein Mdm2 (Homo sapiens, UniProt Q00987)"
reported_result = 7.00

[[record]]
compound = "CCC[C@@H]1N(C(=O)c2cnccc2C(F)(F)F)CCC[C@]1(Oc1csc(C(F)(F)F)c1)C(=O)N1CCN(c2ccccc2OCC(=O)NC)CC1 (single isomer, unassigned)"
system_under_test = "Tumour suppressor p53/oncoprotein Mdm2 (Homo sapiens, UniProt Q00987)"
reported_result = 6.40


Then there is this compound:
Given the entry CCC[C@@H]1N(C(=O)c2cnccc2C(F)(F)F)CCC[C@]1(Oc1csc(C(F)(F)F)c1)C(=O)N1CCN(c2ccccc2OCCO)CC1 (single isomer, unassigned) , report its measured pEC50. 6.40

----------
- test: AUC in mouse at 20 mg/kg, po or 2 mg/kg, iv
- Type: ADME, organism-based
- condition-description: in vivo
measure-name: AUC (µM·h)
Please reply with the bare figure in µM·h and do not write the unit itself.

Given the entry CCC[C@@H]1N(C(=O)c2cnccc2C(F)(F)F)CCC[C@]1(Oc1ccc(C(F)(F)F)cc1)C(=O)N1CCN(c2ccccc2OCCO)CC1 (single isomer, unassigned) , report its measured AUC. 8.7

----------
- test: Clearance in mouse at 2 mg/kg, iv
- Format: ADME, organism-based
- condition-description: in vivo
measure-name: clearance (mL/min/kg)
Please reply with the bare figure in mL/min/kg and do not write the unit itself.

Given the entry `CCC[C@H]1N(C(=O)c2cnccc2C(F)(F)F)CCC[C@@]1(Oc1csc(C(F)(F)F)c1)C(=O)N1CCN(c2ccccc2OCCCC(=O)O)CC1` , report its measured clearance. 133

----------
pIC50 values for the compounds below.
- Tested on: SK-UT-1
- test: Antiproliferative activity against human SK-UT-1 cells harboring mutant p53 after 72 hrs by CellTitre-Glo assay
- Assay type: functional, cell-based
- condition-description: SK-UT-1, 72 h
pIC50: −log10 of the molar value.

[[record]]
compound = "CCC[C@H]1N(C(=O)c2cnccc2C(F)(F)F)CCC[C@@]1(Oc1csc(C(F)(F)F)c1)C(=O)N1CCN(c2ccccc2OCCCC(=O)O)CC1"
measure_name = "pIC50"
reported_result = "< 4.30"

[[record]]
compound = "CCC[C@@H]1N(C(=O)c2cnccc2C(F)(F)F)CCC[C@]1(Oc1csc(C(F)(F)F)c1)C(=O)N1CCN(c2ccccc2OCCO)CC1 (single isomer, unassigned)"
measure_name = "pIC50"
reported_result = "< 4.77"


Then there is this compound:
Give the reported pIC50 for CCC[C@@H]1N(C(=O)c2cnccc2C(F)(F)F)CCC[C@]1(Oc1csc(C(F)(F)F)c1)C(=O)N1CCN(c2ccccc2OCC(=O)NC)CC1 (single isomer, unassigned) (system: SK-UT-1). < 5.00

----------
- system-under-test: Cytochrome P450 1A2 (Homo sapiens)
- Sequence (P05177 whole entry): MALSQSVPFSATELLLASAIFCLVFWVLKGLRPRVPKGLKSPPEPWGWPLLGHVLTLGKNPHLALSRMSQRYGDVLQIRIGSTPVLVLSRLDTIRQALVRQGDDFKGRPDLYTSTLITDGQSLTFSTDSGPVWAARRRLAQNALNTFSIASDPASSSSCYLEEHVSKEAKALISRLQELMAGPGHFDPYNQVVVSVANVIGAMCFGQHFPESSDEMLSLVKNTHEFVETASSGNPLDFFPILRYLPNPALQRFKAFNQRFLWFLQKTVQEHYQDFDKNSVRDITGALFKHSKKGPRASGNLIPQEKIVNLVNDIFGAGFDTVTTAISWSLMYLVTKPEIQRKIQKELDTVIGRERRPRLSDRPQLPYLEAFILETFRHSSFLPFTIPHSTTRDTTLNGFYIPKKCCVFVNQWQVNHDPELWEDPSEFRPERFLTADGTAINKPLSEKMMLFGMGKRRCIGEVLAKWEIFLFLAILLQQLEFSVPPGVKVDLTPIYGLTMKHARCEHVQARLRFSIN
measure-name: IC50

Given the entry `CCC[C@H]1N(C(=O)c2cnccc2C(F)(F)F)CCC[C@@]1(Oc1csc(C(F)(F)F)c1)C(=O)N1CCN(c2ccccc2OCCCC(=O)O)CC1` , report its measured IC50. > 50 µM

----------
IC50 values for the molecules below.
- test: Antiproliferative activity against p53 null human H1299 cells after 72 hrs by CellTitre-Glo assay
- Format: functional, cell-based
- condition-description: NCI-H1299, 72 h

Consider the worked cases shown below.
[[record]]
molecule = "CCC[C@@H]1N(C(=O)c2cnccc2C(F)(F)F)CCC[C@]1(Oc1csc(C(F)(F)F)c1)C(=O)N1CCN(c2ccccc2OCC(=O)NC)CC1 (single isomer, unassigned)"
reported_result = "> 17 µM"

[[record]]
molecule = "CCC[C@@H]1N(C(=O)c2cnccc2C(F)(F)F)CCC[C@]1(Oc1csc(C(F)(F)F)c1)C(=O)N1CCN(c2ccccc2OCCO)CC1 (single isomer, unassigned)"
reported_result = "> 17 µM"


Then there is this molecule:
Given the entry `CCC[C@H]1N(C(=O)c2cnccc2C(F)(F)F)CCC[C@@]1(Oc1csc(C(F)(F)F)c1)C(=O)N1CCN(c2ccccc2OCCCC(=O)O)CC1` , report its measured IC50. > 50 µM

----------
- test: Permeability from apical to basolateral side in human Caco2 cells
- Type: ADME, cell-based
- condition-description: Caco-2, read-out: permeability
measure-name: Papp A→B (×10⁻⁶ cm/s)
Please reply with the bare figure in ×10⁻⁶ cm/s and do not write the unit itself.

Consider the worked cases shown below.
[[record]]
molecule = "CCC[C@H]1N(C(=O)c2cnccc2C(F)(F)F)CCC[C@@]1(Oc1csc(C(F)(F)F)c1)C(=O)N1CCN(c2ccccc2OCC(=O)O)CC1"
measure_name = "Papp A→B"
quantity_unit = "×10⁻⁶ cm/s"
reported_result = 0.7

[[record]]
molecule = "CCC[C@@H]1N(C(=O)c2cnccc2C(F)(F)F)CCC[C@]1(Oc1ccc(C(F)(F)F)cc1)C(=O)N1CCN(c2ccccc2OCCO)CC1 (single isomer, unassigned)"
measure_name = "Papp A→B"
quantity_unit = "×10⁻⁶ cm/s"
reported_result = 9.9

[[record]]
molecule = "CCC[C@@H]1N(C(=O)c2cnccc2C(F)(F)F)CCC[C@]1(Oc1csc(C(F)(F)F)c1)C(=O)N1CCN(c2ccccc2OCC(=O)NC)CC1 (single isomer, unassigned)"
measure_name = "Papp A→B"
quantity_unit = "×10⁻⁶ cm/s"
reported_result = 18.1


Then there is this molecule:
Given the entry `CCC[C@H]1N(C(=O)c2cnccc2C(F)(F)F)CCC[C@@]1(Oc1csc(C(F)(F)F)c1)C(=O)N1CCN(c2ccccc2OCCCC(=O)O)CC1` , report its measured Papp A→B. 18

----------
- test: Fraction unbound in dog plasma
- Type: ADME, cell-free, Canis lupus familiaris
measure-name: fraction unbound
Please state the value as a number alone, without comment.

Given the entry `CCC[C@H]1N(C(=O)c2cnccc2C(F)(F)F)CCC[C@@]1(Oc1csc(C(F)(F)F)c1)C(=O)N1CCN(c2ccccc2OCCCC(=O)O)CC1` , report its measured fraction unbound. 0.02

----------
log10 IC50 values for the molecules below.
- system-under-test: Tumour suppressor p53/oncoprotein Mdm2 (Homo sapiens)
- test: Inhibition of human recombinant His-tagged MDM2 (1 to 118 residues) interaction with FAM-tagged p53-based peptide (unknown origin) incubated for 15 mins by fluorescence polarization assay
Please interpret these as log10 of IC50 where IC50 is in nM.

Consider the worked cases shown below.
[[record]]
molecule = "CCC[C@H]1N(C(=O)c2cnccc2C(F)(F)F)CCC[C@@]1(Oc1csc(C(F)(F)F)c1)C(=O)N1CCN(c2ccccc2OCC(C)(C)O)CC1"
measure_name = "log10 IC50"
reported_result = 1.36

[[record]]
molecule = "CCC[C@@H]1N(C(=O)c2cnccc2C(F)(F)F)CCC[C@]1(Oc1nc(C(F)(F)F)cs1)C(=O)N1CCN(c2ccccc2OCCO)CC1 (racemic)"
measure_name = "log10 IC50"
reported_result = 3.04

[[record]]
molecule = "CCC[C@H]1N(C(=O)c2cnccc2C(F)(F)F)CCC[C@@]1(Oc1cc(C(F)(F)F)sc1C)C(=O)N1CCN(c2ccccc2OCCO)CC1"
measure_name = "log10 IC50"
reported_result = 2.67

[[record]]
molecule = "CCC[C@H]1N(C(=O)c2cnccc2C(F)(F)F)CCC[C@@]1(Oc1csc(C(F)(F)F)c1)C(=O)N1CCN(c2ccccc2OCC(C)(C)C(=O)O)CC1"
measure_name = "log10 IC50"
reported_result = 0.60


Given the entry CCC[C@@H]1N(C(=O)c2cnccc2C(F)(F)F)CCC[C@]1(Oc1ccc(C(F)(F)F)cc1)C(=O)N1CCN(c2ccccc2OCCO)CC1 (single isomer, unassigned) , report its measured log10 IC50. 1.60

Given the entry `CCC[C@H]1N(C(=O)c2cnccc2C(F)(F)F)CCC[C@@]1(Oc1csc(C(F)(F)F)c1Cl)C(=O)N1CCN(c2ccccc2OCCO)CC1` , report its measured log10 IC50. 2.11

Given the entry CCC[C@@H]1N(C(=O)c2cnccc2C(F)(F)F)CCC[C@]1(Oc1csc(C(F)(F)F)c1)C(=O)N1CCN(c2ccccc2OCC2(CC(=O)O)CC2)CC1 (single isomer, unassigned) , report its measured log10 IC50. 1.52
